Sourced from ChEMBL document CHEMBL3608255

The next entries give measured pKi for Serine/threonine-protein kinase PLK1 (Homo sapiens).
Answers are plain numbers, as −log10 of the molar value.

[
  {
    "Smiles str": "CC[C@@H]1C(=O)N(CC)c2cnc(Nc3ccc(C(=O)NC4CCN(C)CC4)cc3OC)nc2N1C1CCCC1",
    "pKi": 9.04
  },
  {
    "Smiles str": "CC[C@@H]1C(=O)N(C)c2cnc(Nc3ccc(C(=O)NC4CCN(C)CC4)c(OC)c3)nc2N1C1CCCC1",
    "pKi": 9.28
  }
]

Turning to the following molecule.
What value of measured pKi is listed for CC[C@@H]1C(=O)N(C)c2cnc(Oc3ccc(C(=O)NC4CCN(C)CC4)cc3OC)nc2N1C1CCCC1 ? 6.62

====

Tgt: Bromodomain-containing protein 4 (Homo sapiens)
Assay: Binding affinity to BRD4 (unknown origin) expressed in Escherichia coli BL21 after 1 hr by proprietary competition assay
Note to self: use class 1 only for Ki readings below 50 nM; a reading exactly at 50 nM still gets class 0.

Field: example entries. Status: answers known.
[
  {
    "Smiles str": "COc1cc(C(=O)NC2CCN(C)CC2)ccc1Nc1ncc2c(n1)N(C1CCCC1)CC(=O)N2C",
    "Tgt": "Bromodomain-containing protein 4 (Homo sapiens)",
    "Label class": "class 0"
  },
  {
    "Smiles str": "CC[C@@H]1C(=O)N(C)c2cnc(Nc3ccc(C(=O)NC4CCN(C)CC4)cc3OC)nc2N1Cc1cccc(Br)c1",
    "Tgt": "Bromodomain-containing protein 4 (Homo sapiens)",
    "Label class": "class 1"
  },
  {
    "Smiles str": "CC[C@@H]1C(=O)N(CC)c2cnc(Nc3ccc(C(=O)NC4CCN(C)CC4)cc3OC)nc2N1C1CCCC1",
    "Tgt": "Bromodomain-containing protein 4 (Homo sapiens)",
    "Label class": "class 0"
  },
  {
    "Smiles str": "CC[C@@H]1C(=O)N(C)c2cnc(Nc3ccc(C(=O)NC4CCN(C)CC4)cc3F)nc2N1C1CCCC1",
    "Tgt": "Bromodomain-containing protein 4 (Homo sapiens)",
    "Label class": "class 1"
  },
  {
    "Smiles str": "CC[C@@H]1C(=O)N(C)c2cnc(Nc3ccc(C(=O)NC4CCN(C)CC4)c(OC)c3)nc2N1C1CCCC1",
    "Tgt": "Bromodomain-containing protein 4 (Homo sapiens)",
    "Label class": "class 1"
  }
]

Take the molecule CC[C@@H]1C(=O)N(C)c2cnc(Nc3ccc(C(=O)NC4CCN(C)CC4)cc3OC3CCCC3)nc2N1C1CCCC1 and say whether its Ki is less than 50 nM. class 1

API: query returns whether the molecule falls strictly under 50 nM in Ki. Query: CC[C@@H]1C(=O)N(C)c2cnc(Nc3ccc(C(=O)NC4CCN(C)CC4)cc3)nc2N1C1CCCC1 class 0

For CC[C@@H]1C(=O)N(C)c2cnc(Nc3ccc(C(=O)NC4CCN(C)CC4)cc3OC)nc2N1CC(C)C , is the recorded Ki below the cut-off of 50 nM? class 0

====

I'd appreciate it if you could supply Ki values for the items below.
Tgt: Bromodomain-containing protein 4 (Homo sapiens, UniProt O60885)
Assay: Binding affinity to BRD4 (unknown origin) expressed in Escherichia coli BL21 after 1 hr by proprietary competition assay

Here are 7 compounds together with their reported answers.
[
  {
    "Smiles str": "CC[C@@H]1C(=O)N(CC(C)C)c2cnc(Nc3ccc(C(=O)NC4CCN(C)CC4)cc3OC)nc2N1C1CCCC1",
    "Tgt": "Bromodomain-containing protein 4 (Homo sapiens, UniProt O60885)",
    "Reported result": "> 10 µM"
  },
  {
    "Smiles str": "CC[C@@H]1C(=O)N(C(C)C)c2cnc(Nc3ccc(C(=O)NC4CCN(C)CC4)cc3OC)nc2N1C1CCCC1",
    "Tgt": "Bromodomain-containing protein 4 (Homo sapiens, UniProt O60885)",
    "Reported result": "4.5 µM"
  },
  {
    "Smiles str": "COc1cc(C(=O)NC2CCN(C)CC2)ccc1Nc1ncc2c(n1)N(C1CCCC1)[C@H](Cc1ccccc1)C(=O)N2C",
    "Tgt": "Bromodomain-containing protein 4 (Homo sapiens, UniProt O60885)",
    "Reported result": "> 10 µM"
  },
  {
    "Smiles str": "CC[C@@H]1C(=O)N(C)c2cnc(Oc3ccc(C(=O)NC4CCN(C)CC4)cc3OC)nc2N1C1CCCC1",
    "Tgt": "Bromodomain-containing protein 4 (Homo sapiens, UniProt O60885)",
    "Reported result": "0.099 µM"
  },
  {
    "Smiles str": "CC[C@@H]1C(=O)N(C)c2cnc(Nc3ccc(C(=O)NC4CCN(C)CC4)cc3OCc3ccccc3)nc2N1C1CCCC1",
    "Tgt": "Bromodomain-containing protein 4 (Homo sapiens, UniProt O60885)",
    "Reported result": "0.1 µM"
  },
  {
    "Smiles str": "CC[C@@H]1C(=O)Nc2cnc(Nc3ccc(C(=O)NC4CCN(C)CC4)cc3OC)nc2N1C1CCCC1",
    "Tgt": "Bromodomain-containing protein 4 (Homo sapiens, UniProt O60885)",
    "Reported result": "7.95 µM"
  },
  {
    "Smiles str": "CC[C@@H]1C(=O)N(Cc2ccccc2)c2cnc(Nc3ccc(C(=O)NC4CCN(C)CC4)cc3OC)nc2N1C1CCCC1",
    "Tgt": "Bromodomain-containing protein 4 (Homo sapiens, UniProt O60885)",
    "Reported result": "> 10 µM"
  }
]

# next compound below
// lookup Ki for CC[C@@H]1C(=O)N(C)c2cnc(Nc3ccc(C(=O)NC4CCN(C)CC4)cc3OCC(C)C)nc2N1C1CCCC1 0.029 µM
